Where do the numbers come from? From ChEMBL document CHEMBL5303573.

Test: The drug is tested on Parabacteroides merdae strain: ATCC43184 for biotransformation. The drug concentrations were measured before and after a 12-h incubation by liquid-chromatography-coupled mass spectrometry (LC–MS)
Conditions: 2 µM
measurementName: Bacterial Biotransformation

Before answering, review these 6 worked examples.
CCCCC(=O)N(Cc1ccc(-c2ccccc2-c2nnn[nH]2)cc1)[C@H](C(=O)O)C(C)C ... Compound NOT metabolized
CN1CC(=O)N2[C@H](c3ccc4c(c3)OCO4)c3[nH]c4ccccc4c3C[C@@H]2C1=O ... Compound NOT metabolized
C#C[C@]1(OC(C)=O)CC[C@H]2[C@@H]3CCC4=C/C(=N/O)CC[C@@H]4[C@H]3CC[C@@]21CC [NORGESTIMATE] ... Compound NOT metabolized
CO[C@]12C[C@@H](COC(=O)c3cncc(Br)c3)CN(C)[C@@H]1Cc1cn(C)c3cccc2c13 [NICERGOLINE] ... Compound NOT metabolized
C#C[C@]1(OC(C)=O)CC[C@H]2[C@@H]3CCC4=CC(=O)CC[C@@H]4[C@H]3CC[C@@]21C [NORETHINDRONE ACETATE] ... Compound metabolized
CC(=O)Oc1ccc(C(c2ccc(OC(C)=O)cc2)c2ccccn2)cc1 [BISACODYL] ... Compound metabolized

Identify the reported Bacterial Biotransformation for the following entry. N#Cc1ccc2[nH]cc(CCCCN3CCN(c4ccc5oc(C(N)=O)cc5c4)CC3)c2c1 [VILAZODONE] Compound metabolized

Please list Bacterial Biotransformation recorded for the compound CCCCCCOC(=O)/N=C(/N)c1ccc(NCc2nc3cc(C(=O)N(CCC(=O)OCC)c4ccccn4)ccc3n2C)cc1.CS(=O)(=O)O [DABIGATRAN ETEXILATE MESYLATE] Compound NOT metabolized

Indicate the recorded Bacterial Biotransformation value for this compound: CCN(CC)CCCC(C)Nc1c2ccc(Cl)cc2nc2ccc(OC)cc12 (stereo not drawn) [QUINACRINE] Compound NOT metabolized
